# procedure_details: Phase 1 pharmacokinetic study of a single oral dose of 20 mg E4 monohydrate in female subjects with normal hepatic function and mild, moderate or severe hepatic impairment (plasma, LC-MS/MS, non-compartmental analysis)
# Type: in vivo, human
# experimental_context: female, human, plasma, po, 20 mg, Mild hepatic impairment; single oral dose 20 mg E4 monohydrate; plasma; read-out: AUCinf, GM
readout_name: AUC(0-inf) (ng·h/mL)

compound_structure: C[C@]12CC[C@@H]3c4ccc(O)cc4CC[C@H]3[C@@H]1[C@@H](O)[C@@H](O)[C@@H]2O
unit_spec: ng·h/mL
reported: 117

====

# procedure_details: Phase 1 pharmacokinetic study of a single oral dose of 20 mg E4 monohydrate in female subjects with normal hepatic function and mild, moderate or severe hepatic impairment (plasma, LC-MS/MS, non-compartmental analysis)
# Format: in vivo, human
# experimental_context: female, human, plasma, po, 20 mg, Mild (Test); one-way ANOVA; single oral dose 20 mg; read-out: AUCinf, Geometric LS Mean
readout_name: AUC(0-inf) (ng·h/mL)

compound_structure: C[C@]12CC[C@@H]3c4ccc(O)cc4CC[C@H]3[C@@H]1[C@@H](O)[C@@H](O)[C@@H]2O
readout_name: AUC(0-inf)
reported: 117

====

# procedure_details: Phase 1 pharmacokinetic study of a single oral dose of 20 mg E4 monohydrate in female subjects with normal hepatic function and mild, moderate or severe hepatic impairment (plasma, LC-MS/MS, non-compartmental analysis)
# Assay type: in vivo, human
# experimental_context: female, human, plasma, po, 20 mg, Severe hepatic impairment; single oral dose 20 mg E4 monohydrate; plasma; read-out: Tmax, Median
readout_name: Tmax (min)

molecule: C[C@]12CC[C@@H]3c4ccc(O)cc4CC[C@H]3[C@@H]1[C@@H](O)[C@@H](O)[C@@H]2O [E4]
readout_name: Tmax
reported: 15
